Tested on: LXFL 529 NSCLC
experiment.description: NCI tumour cell line growth inhibition, 48 h
Reported TGI by item:

Recorded results for 3 compounds are shown here.
>>> df
                                   compound     test_system    result
0     CC1=Nn2c(nnc2-c2ccc(Cl)cc2)NC(C)(C)C1  LXFL 529 NSCLC  > 100 µM
1  COc1cc2c(cc1OC)C(Cc1ccc(Oc3cc(CC4c5cc(OC)c(OC)cc5CCN4C)ccc3O)cc1)N(C)CC2 (stereo not given)  LXFL 529 NSCLC   28.5 µM
2  O=C(c1ccccc1)c1nc2ccc(Cl)cc2c2c1Cc1ccccc1-2  LXFL 529 NSCLC  > 100 µM

For reference, reported TGI for COc1cc2c(cc1OC)[Se]c1cc(OC)c(OC)cc1[Se]2 stands at > 100 µM

Memo: COCCCCCC(=O)CP(=O)(OC)OC , reported TGI: > 100 µM

Value source: PubChem BioAssay (NCI)
